Recorded values, source paper PMC10206591.

measurement.protocol: Cell viability, Cell-Titer Glo (ATP levels), Hek 293T
Type: cell-based
settings: human; 48 h, Fig. 6C; read-out: Hek293T CC90
Overview of recorded CC90 for various molecules
Give just the number in µM; leave the unit off.

Use these answered entries as a reference point.
{"molecule": "O=C(Nc1ccccc1)OCC(CN1CCCCC1)OC(=O)Nc1ccccc1 (centres unmarked)", "quantitative.readout": 98.3}
{"molecule": "CC(C)OC(=O)CCC/C=C\\C[C@@H]1[C@@H](CC[C@@H](O)CCc2ccccc2)[C@H](O)C[C@@H]1O", "quantitative.readout": 270}
{"molecule": "COCCCOc1ccnc(C[S+]([O-])c2nc3ccccc3[nH]2)c1C (centres unmarked)", "quantitative.readout": 83.6}
{"molecule": "CCOc1ccc(Cc2nccc3cc(OCC)c(OCC)cc23)cc1OCC", "quantitative.readout": 121}

Reported CC90 for C#C[C@]1(O)CC[C@H]2[C@@H]3CCc4cc(O)ccc4[C@H]3CC[C@@]21C : what is it?
170

----------
System: Hek 293T cells
measurement.protocol: Cell viability, Cell-Titer Glo (ATP levels), Hek 293T
Format: cell-based
settings: 48 h, Fig. 6C
assay.endpoint: Hek293T CC10 (µM)
Give just the number in µM; leave the unit off.

Use these answered entries as a reference point.
{"compound": "C#C[C@]1(O)CC[C@H]2[C@@H]3CCc4cc(O)ccc4[C@H]3CC[C@@]21C", "measurement.unit": "µM", "Hek293T CC10": 11.8}
{"compound": "CCOc1ccc(Cc2nccc3cc(OCC)c(OCC)cc23)cc1OCC", "measurement.unit": "µM", "Hek293T CC10": 9.7}
{"compound": "COCCCOc1ccnc(C[S+]([O-])c2nc3ccccc3[nH]2)c1C (stereo not drawn)", "measurement.unit": "µM", "Hek293T CC10": 14.3}
{"compound": "CCC(C)(C)C(=O)O[C@H]1C[C@@H](C)C=C2C=C[C@H](C)[C@H](CC[C@@H]3C[C@@H](O)CC(=O)O3)[C@H]21", "measurement.unit": "µM", "Hek293T CC10": 8.0}
{"compound": "CC(C)OC(=O)CCC/C=C\\C[C@@H]1[C@@H](CC[C@@H](O)CCc2ccccc2)[C@H](O)C[C@@H]1O", "measurement.unit": "µM", "Hek293T CC10": 16.2}

Could you now look at the following compound, please?
Reported Hek293T CC10 for O=C(Nc1ccccc1)OCC(CN1CCCCC1)OC(=O)Nc1ccccc1 (stereo not drawn) : what is it?
14.2

----------
measurement.protocol: Cell viability, Cell-Titer Glo (ATP levels), Vero E6
Type: cell-based
settings: African green monkey, Fig. 6C
assay.endpoint: CC90 at 48 h

Reported CC90 at 48 h for CCC(C)(C)C(=O)O[C@H]1C[C@@H](C)C=C2C=C[C@H](C)[C@H](CC[C@@H]3C[C@@H](O)CC(=O)O3)[C@H]21 : what is it?
61.2 µM

----------
measurement.protocol: Cell viability, Cell-Titer Glo (ATP levels), Vero E6
Type: cell-based
settings: African green monkey, Fig. 6C
assay.endpoint: CC50 at 48 h

Reported CC50 at 48 h for CCC(C)(C)C(=O)O[C@H]1C[C@@H](C)C=C2C=C[C@H](C)[C@H](CC[C@@H]3C[C@@H](O)CC(=O)O3)[C@H]21 : what is it?
~6 µM

----------
measurement.protocol: Cell viability, Cell-Titer Glo (ATP levels), Vero E6
Assay type: cell-based
settings: African green monkey; 48 h, Fig. 6C
assay.endpoint: CC90
Could you write the number and then its unit?

Reported CC90 for CCOc1ccc(Cc2nccc3cc(OCC)c(OCC)cc23)cc1OCC : what is it?
195 µM

Reported CC90 for C#C[C@]1(O)CC[C@H]2[C@@H]3CCc4cc(O)ccc4[C@H]3CC[C@@]21C : what is it?
224 µM

Reported CC90 for O=C(Nc1ccccc1)OCC(CN1CCCCC1)OC(=O)Nc1ccccc1 (centres unmarked) : what is it?
153 µM

Reported CC90 for CC(C)OC(=O)CCC/C=C\C[C@@H]1[C@@H](CC[C@@H](O)CCc2ccccc2)[C@H](O)C[C@@H]1O : what is it?
171 µM

Reported CC90 for COCCCOc1ccnc(C[S+]([O-])c2nc3ccccc3[nH]2)c1C (centres unmarked) : what is it?
194 µM
